- Tested on: M. mycetomatis strain mm55
- CONDITIONS_USED: primary screen, metabolic activity vs growth control; 96 h, 2 µM; inhibitor
Counter-ions that a name gives are not always drawn. Hit rate of the full screen: of about 5,300 compounds, about 130 (2.5%) showed an effect of 50% or more. This is one part of a sample in which strong results are shown more often than they occur.
Exam item: assign YES to entries whose % viability is below 80% and NO to entries at or above 80%. Note that a value of exactly 80% receives NO.

{"COMPOUND": "CC(C)N[C@H]1CCn2c(=O)[nH]c3cccc(c32)[C@@H]1O [ONC0003872, zilpaterol]", "TESTED_TARGET": "M. mycetomatis strain mm55", "LABEL": "NO"}
{"COMPOUND": "CNC(=O)c1ccc2c(c1)S(=O)(=O)c1ccccc1C2=O [ONC0002375, bw616u]", "TESTED_TARGET": "M. mycetomatis strain mm55", "LABEL": "YES"}
{"COMPOUND": "O=C1c2c(O)cccc2[C@H]([C@@H]2O[C@H](CO)[C@@H](O)[C@H](O)[C@H]2O)c2cc(CO)cc(O)c21 [ONC0002367, aloin]", "TESTED_TARGET": "M. mycetomatis strain mm55", "LABEL": "NO"}
{"COMPOUND": "CCOC(=O)c1ccc(N)cc1 [ONC0003279, benzocaine]", "TESTED_TARGET": "M. mycetomatis strain mm55", "LABEL": "YES"}
{"COMPOUND": "CCOC(=O)c1ccc(NC2CCCCC2)c(N)c1 [ONC0000320, ferrostatin1]", "TESTED_TARGET": "M. mycetomatis strain mm55", "LABEL": "YES"}
{"COMPOUND": "CO[C@H]1C[C@H](O[C@H]2CC[C@@]3(C)[C@H](CC[C@@H]4[C@@H]3CC[C@]3(C)[C@@H](C5=CC(=O)OC5)[C@@H](OC(C)=O)C[C@]43O)C2)O[C@@H](C)[C@@H]1O [ONC0000896, oleandrin]", "TESTED_TARGET": "M. mycetomatis strain mm55", "LABEL": "YES"}
{"COMPOUND": "C[C@@H]1CCCN1CCc1cc2cc(-c3ccc(C#N)cc3)ccc2o1 [ONC0003444, abt 239 tartrate]", "TESTED_TARGET": "M. mycetomatis strain mm55", "LABEL": "YES"}

Source listed as paper PMC12670160.
